# Protocol text: Single dose PK/TK, minipig
# Format: in vivo
# Test context: both sexes, Gottingen, in vivo; minipig 2M+2F, 50190, single oral 563 mg/kg (2602 μmol/kg), capsules, fasted
Quantity measured: Tmax (h)
Unit h implied. Number only.

Input: In one line, give reported Tmax of the entry c1cnc2c(c1)C[C@@]1(CN3CCC1CC3)O2 .
Output: 12

###

# Protocol text: Multiple dose PK/TK, minipig
# Assay type: in vivo
# Test context: both sexes, Gottingen, minipig, in vivo, po, 422 mg/kg, minipig 2F+2M, 50190, 422 mg/kg (1951 μmol/kg), capsules fasted, day 7
Quantity measured: Tmax (h)
Unit h implied. Number only.

Input: In one line, give reported Tmax of the entry c1cnc2c(c1)C[C@@]1(CN3CCC1CC3)O2 [AZD0328] .
Output: 12
